Test system: HL-60
Test: NCI tumour cell line growth inhibition, 48 h
The source made the active and inactive calls. Cut-off read from the data, not from the text of the source: active = GI50 up to about 1.1 µM and inactive = higher.
Please answer using one outcome listed in active, inactive

{"Compound": "N#CC(C(=O)CCC(=O)Nc1ccc(Cl)cc1)c1ccc(Cl)cc1 (stereo unspecified)", "Classification": "inactive"}
{"Compound": "COc1ccc2cc(-c3nc(N)nc(N4N=C(C)CC4(C)C)n3)c(=N)oc2c1", "Classification": "inactive"}
{"Compound": "CN(C)CCCN1c2ccccc2Sc2ccc3ccccc3c21", "Classification": "active"}
{"Compound": "O=C(NC(=O)c1c(F)cccc1F)Nc1cccc(Oc2ncc(Cl)cn2)c1", "Classification": "inactive"}
{"Compound": "Nc1c(S(=O)(=O)c2ccccc2)c2nc3ccccc3nc2n2c1nc1ccccc12", "Classification": "inactive"}
{"Compound": "Cc1ccccc1-c1nc2c(N)nc(N)nc2nc1N", "Classification": "inactive"}
{"Compound": "CCOC(=O)CC[C@@H](NC(=O)c1ccc(NCc2ccc3nc(OC)c(OC)nc3c2)cc1)C(=O)OCC", "Classification": "inactive"}
{"Compound": "Cc1nc(-n2nc(-c3ccccc3)cc2-c2ccccc2)sc1C(=O)/C=C/c1ccc(Cl)cc1", "Classification": "inactive"}

Asked: Hey, what did the test say about Nc1ccn(C2OC(C(O)CO)C(O)C2O)c(=O)n1 (stereo unspecified) ?
Given back: inactive

Asked: Another compound to check: Clc1cc2nc(C3CCCO3)[nH]c2cc1Cl (stereo unspecified)
Given back: inactive

Asked: Proceed to CCOP(=O)(OCC)/C(C#N)=C(\C)c1ccco1
Given back: inactive

* * *

Test system: HOP-62
Experiment: NCI tumour cell line growth inhibition, 48 h
Calls of active or inactive are those of the source. Rule as the data show it: active = GI50 up to about 1.1 µM and inactive = higher.
Here the recorded GI50 is given for each entry.

{"Molecule": "COC(=O)C1=C(C)NC2=C(C(=O)c3ccccc32)C1c1cn(-c2ccccc2)nc1-c1ccccc1 (stereo not given)", "GI50": "> 100 µM (inactive)"}
{"Molecule": "O=CC1=CCC2c3[nH]c4ccccc4c3CCN2C1 (stereo not given)", "GI50": "> 39.6 µM (inactive)"}
{"Molecule": "OCC(O)C(OC1OC(CO)C(O)C(O)C1O)c1nn(-c2ccc(Cl)cc2)c2nc3cc(Cl)c(Cl)cc3nc12 (stereo not given)", "GI50": "> 100 µM (inactive)"}
{"Molecule": "Cc1c(C(=O)CC(=O)C(=O)Nc2cc(Cl)ccc2Cl)[n+]([O-])c2ccccc2[n+]1[O-]", "GI50": "> 100 µM (inactive)"}

Now turn to the next molecule.
Asked: Name the reported GI50 value associated with the molecule O=S(O)c1cc(Cl)cc(Cl)c1O
Given back: > 100 µM (inactive)

* * *

System: ACHN
Assay: NCI tumour cell line growth inhibition, 48 h
Where a name gives a salt, the structure may show the parent alone. Activity calls are given as the source filed them. No stated cut-off is given here; in the data, active = GI50 up to about 1.1 µM and inactive = higher. Residues, ends and D or L forms follow the SMILES beside them. *: point of attachment. Tfa = O=C(C(F)(F)F)*
Reported Endpoint: GI50

For orientation, consider the following solved cases.
{"Molecule": "Oc1cc(-c2ccccn2)nc2ccc(Cl)cc12", "GI50": "58.6 µM (inactive)"}
{"Molecule": "O=S(O)CCCCSSCCCCS(=O)(=O)S", "GI50": "72.6 µM (inactive)"}
{"Molecule": "COC(=O)C(C(=O)C(=O)Nc1cccc(O)c1)c1nc2ccc(Cl)cc2nc1O (centres undefined)", "GI50": "> 100 µM (inactive)"}
{"Molecule": "Cc1cn([C@@H]2O[C@H](CO[Si](C)(C)C(C)(C)C)[C@]3(O[C@H]3C(=O)NO)[C@H]2O[Si](C)(C)C(C)(C)C)c(=O)[nH]c1=O", "GI50": "1.7 µM (inactive)"}

Asked: Sample C[C@]12CC[C@@H]3c4cc(I)c(O)cc4CC[C@H]3[C@@H]1CC[C@@H]2O — what was its GI50?
Given back: 8.75 µM (inactive)

Asked: // repeat for COc1ccc(C(OCC2OC(n3cc(C)c(=O)[nH]c3=O)CC2n2cc(Cn3cc(Br)c(=O)[nH]c3=O)nn2)(c2ccccc2)c2ccccc2)cc1 (centres undefined) and report
Given back: > 100 µM (inactive)

Asked: And the next one, COC(=O)C(=O)C(C(=O)C(=O)Nc1cccc(C(C)=O)c1)c1nc2ccccc2nc1O (centres undefined) ?
Given back: > 100 µM (inactive)

Asked: Next: O=C(O)CC(NC(=O)C(F)(F)F)C(=O)NC(Cc1ccc(O)cc1)C(=O)O (stereo not drawn) (Tfa-Asp-Tyr-OH; configuration not given here)
Given back: > 50 µM (inactive)

Asked: Then CC(=O)Oc1cc2c(cc1OC(C)=O)[C@H]1CC[C@]3(C)[C@@H](OC(C)=O)CC[C@H]3[C@@H]1CC2 ?
Given back: 3.56 µM (inactive)

Asked: And CN(C)c1ccc(-c2[nH]c(=O)c3ccccc3[n+]2C)cc1 ?
Given back: 62.5 µM (inactive)

Asked: Could you do the same for CC(C)(C)c1cc(C(C)(C)C)c(SSc2c(C(C)(C)C)cc(C(C)(C)C)c(O)c2O)c(O)c1O , please?
Given back: 11.4 µM (inactive)

Asked: Also need CN(C)CCCNC(=O)c1cc(NC(=O)c2cc(NC(=O)[C@@H]3C[C@H]3C(=O)Nc3cc(C(=O)Nc4cc(C(=O)NCCCN(C)C)n(C)c4)n(C)c3)cn2C)cn1C , thanks.
Given back: > 100 µM (inactive)

Asked: Entry CCOC(=O)C1(C)CCCc2sc(N)c(C#N)c21 (centres undefined) please
Given back: > 100 µM (inactive)

Asked: Now the same for O=S(=O)(O)C1=C2Sc3ccccc3N=C2c2ccccc2C1
Given back: 12.5 µM (inactive)

Asked: Then N#CC(C#N)C1CN2CCC1CC2 (centres undefined) ?
Given back: > 100 µM (inactive)

Asked: Lookup COC(=O)C1CC(=O)O[C@H]1c1ccc(OC)c(OC)c1 (some centres undefined)
Given back: > 100 µM (inactive)

Values were extracted from ChEMBL document CHEMBL1201862.
